# test_summary: yeast display, Sf9 membrane polyspecificity reagent, FACS + sequencing; frameworks hold sequencing errors
readout_label: polyreactivity (PSR sort gate)

* QVQLVESGGGLVQAGGSLRLSCAASGIIFLDNVMRWYRQAPGKERELVAAISSSGGSTYYADSVKGRFTISRDNAKNTVYLQMNSLKPEDTAVYYCAAYFRRGFYYWGQGTQVTVSS | high polyreactivity
* QVHLVESGGGLVQAGGSLRLSCAASGFTCGYNAMGWYRQAPGKETELVATICGGGRTKYADSVKGRFTLSRDNAKNTVYLQMNSLKPEDTAVYYCNVVQTYYRGSYIYIKYGYWGQGTQVTVSS | high polyreactivity
* QVQLVESGGGLVQAGGSLRLSCAASGFISDGNYMGWYRQAPGKERELVAAISSGATTHYADSVKGRFTISRDNAKNTVYLQMNSLKPEDTAVYYCNRGDDWRYDYWGQGTQVTVSS | low polyreactivity
* QVQLVESGGGLVHAGGSLRLSCAASGLISYRYAMGWYRQAPGKERELVAAISWRGGSTYYADSVKGRFTISRDNAKNTVYLQMNSLKPDDTAVYYCNALGLGLFDYWGQGTQVTVSS | high polyreactivity
* QVQLVESGGGLVQAGGSLRLSCAASGRTFESYGMGWYRQAPGKERELVAAITWSGGDTYYADSVKGRFTISRDNAKNTVYLQMNSLKPEDTAVYYCAKEQGLYSVSPYDYWGQGTQVTVSS | low polyreactivity
* QVQLVESGGGLVQAGGSLRLSCAASGSIFRNYAMGRSRQAPGKERELVAAITSGVRTNYADSVKGRFTISRDNAKNTVYLQMNSLKPEDTAVYYCNKGYNAVWRYRGDYWGQGTHVTVSS | high polyreactivity
* QVQLVESGGGLVQAGGSLRLSCAASGRIFVYYVMGWYRQAPGKERELVASITFRGSRTYYADSVKGRFTISRDNAKNTVYLQMNSLKTEETAGYYCNADVWASGSRGEGYWGQGSQVTVSS | low polyreactivity
* QVQRVESGGGLFQAGGSLRLSCAASGITFRYYNMGWYRQAPGKERELVAAISSSGGSTYYADSVKGRFTISRDNAKNTVYLQMNSLKPEDTAVYYCAAESKYSTSSPRRDYWGQGTQVTVSS | high polyreactivity
* QLQLVESGGGLVQAGGSLRLSCAASGRTFVRYAMGWYRQAPGKERELVAGISRSTGGTYYADSVKGRFTISRDNAKNTVYLQMNSLKPEDTAVYYCAAVYHKNGSGDYSWGQGTQVTVSS | high polyreactivity
* QVQLVESGGGLVQAGGSLRLSCAASGFTFGWYAMGWYRQAPGKEREFVAAISQTGGSTYYADSVKGRFTISRDNAKNTVYLQMNSLKPEDTAVYYCAAPGKRRGVYYWGQGTQVTVSS | high polyreactivity
* QVQLVESGGGLVQAGGSLRLSCAASGSTFGLNAMGWYRQAPGKERELVAAISTSGGSTYYADSVKGRFTISRDNAKNTVYLQMNSLKPEDTAVYYCAAEVVAGYDYSQYYYWGQGTQVTVSS | low polyreactivity

###

# test_summary: yeast display, Sf9 membrane polyspecificity reagent, FACS + sequencing; frameworks hold sequencing errors
readout_label: polyreactivity (PSR sort gate)

• QVQLVESVGGLVQAGGILRLSCAASGNTFPAYAMGWYRQAPGKERELVATISWSTGSTNYADSVKGRFTISRDTAKNTVYLQMNSLKPEDTAVYYCAASYWCYEYDYWGLGTQVTVSS = low polyreactivity
• QVQLVESGGGLVQAGGSLRLSCAASGRIFHNNAMGWYIQAPGKERELVAAISTGGSTNYADSVKGRFTISRDNAKNTVYLQMNSLKPEDTAVYYCAADHPVTYPTSKFDYWGQGTQVTVSS = low polyreactivity
• QVQLVESGGGLVPAGGSLRLSCAASGSTFYIYAMGWYRQAPGKERELVAAISRRGSSTYYADSVKGRFTISRDNAKNTVYLQMNSLIPEDTAVYYCAASQRHDHYYWGQGTQVTVSS = high polyreactivity
• QVQLVDSGGGLVQAGGRLRLSCAASGFIYEPNAMGGYRQAPGKEMELVAAISSGGSTYADSVKGRFTISRDNAKNTVYLQMNSLKPEDTAVYYCAADSYYSVWGFYYWGQGTQVTVSS = low polyreactivity
• QVQLVESGGGLVQAGGSLRLSCAASGRIYRSYAMGWYRQAPGKERDLVAAITKSGGGTYYADTVKGRYTISRVNAKNTVYLQMNSLNPEDTAVYYCGARGHGGYYYWGQGTQVTVSS = high polyreactivity
• QDQLVESGGGIVQAGGSLRLSCAASGRIFYGYAMGWYRQAPGKERELVAAITSRGTSTYYADSVKGRFTISRDNAKNTVYLQMNSLKPEDTAVFYCNAAYGRSFYSKVFSYNYWGQGTQVTVSS = high polyreactivity
• QVQLVESGGGLVQAGGSLRLSCAASGSTFYNYAMGWYRQAPGKERELVAAISSSGGRTYYADSVKGRFTISRDNAKNTVYLQMNSLKPEDTAVYYCAASGRKNGMNYWGQGTQVTVSS = high polyreactivity
• QDQLVESGGGLVQAGGSLRLSCAASGSTFLINAMGWYRQAPGKERELVAAISDSGGSTHYADSVKGRFTISRDNAKNTVYLEMNSLKPEDTAVYYCAATIPTTLILYGYWGQGTQVTVSS = low polyreactivity
• QVQLEESGGGLVQAGGSLRLSCAASGSTIPRNAMGWYRQAPGKERELVAAITSGGSTNYADSVKGRFTISRDNAKNTVYLQMNSLKPEDTSVYYCAADEQVNTQYVVWGDYWGQGTQVTVSS = low polyreactivity
• QVQLVESGGGLVQAGGSLRLSCAASGRTFQYYAMGWYRQAPGKERELVAAISSGGSTYYADSVKGRFTISRDNAKNTVYLQMNSLKPEDTAVYYCTARWGYRRGYWGQGTQVTVSS = high polyreactivity
• QVQLVESGGGLVQAGGRLRLSCAASGSTFTDYAMGWYRQAPRKERELVASITSGGRTNYADSVKGRFTITRDNAKNTVYLQMNSLKPEDTAVYYCAADYSVPTSQAYDYWGQGTQVTVSS = low polyreactivity
• QVQLVESGGGLVQAGGSLRLSCAASGLIFWAYAMGWYRQAPGKERELVAAINWRGGSTYYADSVKGRFTISRDNAKNTVYLQMNSLKPEDTAVYYCAADSYYDEYDYCGQGTQVTVSS = low polyreactivity
• QVQLVESGGGLVQAGGSLRLSCAASGRIFKYYAMGWYRQAPGKERELVAAISTSVGSTYYADSVKGRFTISRDNAKNTVYLQMNSLKPEDTAVYYCNTRKYHYFLGGAAGNYWGQGTQVTVSS = high polyreactivity
• QVQLVESGGGLVQAGGSLRLTCAASGSTSYPYAMGWYRQEPGKERELVATITSGGRTNYADSVKGRFTISRDNAKNTVYLQMHSLKPEDTAVYYCNARFYRWRSYGYDYWGQGTQVTVSS = high polyreactivity
• QVQLVESGGGLVQAGASLRLSCAASGSTFARYAMGWYRQAPGKERELVAAISSSGRTYYADSVKGRFTISRDNAKNSVYLQMNSLKPEDTAVYYCNAPVARGEASYYWGQGTQVTVSS = high polyreactivity
• QVQLVESGGGLVQAGGSLRLSCAASGSTFTGYAMGWYRPAPGKEREFVAAISRSGGSTYYADSVKGRFTISRDNAKNTVYLQMNSLKPEDTAVYYCNARGFTRYTVGRNYWGQGTQVTVSS = high polyreactivity
• QVQLVESGGGLVQAGGSLRLSCAASGGIFYAYAMGWYRQAPGKERELVAAISISDGDTYYADSVKGRFTISRDNAKNTVYLQMNSLKPEDTAVYYCAAEQEYDLREYDYWGQGTQVTVSS = high polyreactivity
• QVQLVESWGGLVQAGGSLRLICAASGRIFYPYAMGWYRQAPGKERELVASITSGGGSYYADSVKGRFTISRDNAKNTVYLQMNSLKPEDTAVYYCAAPYITPYGTYVFSSVYWGQGTQVTVSS = low polyreactivity
• QVQLVESGGGLVQAGGSLRLSCAASGITFPGYAMGWYRQAPGKERELVAAIDRSGDGTYYADSVKGRFTISRDNAKNTVYLQMNSLKPEDPAVYYCAKDNYPNHSTVLAVIYDYWGQGTQVTVSS = low polyreactivity
• QVQLVESGGGLVQAGGSLRLSCAASGRIFAKNAMGWYRQAPGKERELVAAINHSGGSTYYADSVKGRFTISRDNAKNTVYLQMNSLKPEDTAVYYCAALGSGVPRYYYWGQGTQVTVSS = high polyreactivity
• QVQLVESGGGLVQAGGSLRLSCAASGFIFSIYAMGWYRQAPGKERELVATITYSGGSTYYADSVKGRFTISRDNAKNTVYLQMNSLKPEDTAVYYCNALSKGYYTIGGYSWGQGTQVTVSS = low polyreactivity
